Molecular target: NS5B from the BK strain (genotype 1b) (Hepatitis C virus genotype 1b)
Construct: NS5B from the BK strain (genotype 1b) is expressed in E. coli as a protein in which the 21 C-terminal amino acids are replaced; made in house; host or cells: E. coli
Assay: Hepatitis C polymerase inhibition, NS5B BK strain, 33P-GTP filter assay
Format: biochemical
Conditions: Table 1B; NS5B BK strain; read-out: BK IC50
Reported Endpoint: IC50

1) COCC1(CC(=O)O)OCCc2c1[nH]c1ccc(Cl)c(Cl)c21 (centres unmarked); > 27 µM
2) CC[C@H](C)[C@]1(CC(=O)O)OCCc2c1[nH]c1c(F)ccc(C#N)c21; > 30 µM
3) O=C(O)CC1(C2CCCCC2)OCCc2c1[nH]c1c(Cl)ccc(Cl)c21 (centres unmarked); > 30 µM
4) N#Cc1ccc(F)c2[nH]c3c(c12)CCOC3(C(=O)O)C1CCCCC1 (centres unmarked); > 30 µM
5) COCCC1(CC(=O)O)OCCc2c1[nH]c1c(Cl)ccc(Cl)c21 (centres unmarked); > 24 µM

###

Target: NS5B from the BK strain (genotype 1b) (Hepatitis C virus genotype 1b, UniProt P26663)
Construct: NS5B from the BK strain (genotype 1b) is expressed in E. coli as a protein in which the 21 C-terminal amino acids are replaced; made in house; host or cells: E. coli
Sequence (P26663 2420-2989): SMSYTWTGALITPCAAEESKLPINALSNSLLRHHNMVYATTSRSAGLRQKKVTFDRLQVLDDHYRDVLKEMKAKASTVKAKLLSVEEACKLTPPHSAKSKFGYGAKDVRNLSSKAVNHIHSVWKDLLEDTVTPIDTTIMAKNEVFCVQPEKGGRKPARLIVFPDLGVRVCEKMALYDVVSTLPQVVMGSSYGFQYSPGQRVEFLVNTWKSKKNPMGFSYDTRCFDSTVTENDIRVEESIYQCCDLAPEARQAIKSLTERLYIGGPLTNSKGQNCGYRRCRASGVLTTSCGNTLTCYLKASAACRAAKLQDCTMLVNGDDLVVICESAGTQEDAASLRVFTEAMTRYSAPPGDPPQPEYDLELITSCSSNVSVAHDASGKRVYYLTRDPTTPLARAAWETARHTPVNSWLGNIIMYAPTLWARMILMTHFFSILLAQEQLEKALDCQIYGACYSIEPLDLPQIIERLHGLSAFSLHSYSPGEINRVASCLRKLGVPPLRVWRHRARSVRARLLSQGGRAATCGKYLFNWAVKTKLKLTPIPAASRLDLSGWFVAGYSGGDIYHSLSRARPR
Test: Hepatitis C polymerase inhibition, NS5B BK strain, 33P-GTP filter assay
Format: biochemical
Conditions: Table 1A; 20 μM compound; read-out: HCV pol % inh at 20 μM
Reported Endpoint: inhibition at 20 µM

1) O=C(O)CC1(c2ccc([N+](=O)[O-])cc2)OCCc2c1[nH]c1cccc(Cl)c21 (stereo not drawn) [Example 18]; < 5%
2) CCCC1(CC(=O)O)OCCc2c1[nH]c1cccc(-c3ccc(OC)cc3)c21 (stereo not drawn) [Example 33]; < 5%
3) O=C(O)CC1(c2ccccc2)OCCc2c1[nH]c1cccc(Cl)c21 (stereo not drawn) [Example 17]; < 5%

###

Biological target: NS5B from the BK strain (genotype 1b) (Hepatitis C virus genotype 1b)
Construct: NS5B from the BK strain (genotype 1b) is expressed in E. coli as a protein in which the 21 C-terminal amino acids are replaced; made in house; host or cells: E. coli
Experiment: Hepatitis C polymerase inhibition, NS5B BK strain, 33P-GTP filter assay
Assay type: biochemical
Details: Table 1B; NS5B BK strain; read-out: BK IC50
Source text: The ability of the compounds of the present invention to inhibit Hepatitis C Polymerase was established by the following experimental procedure: • NS5B from the BK strain (genotype 1b) is expressed in E. coli as a protein in which the 21 C-terminal amino acids are replaced with a short linker and a hexahistidine tag ([…]). […] The radioactive product is captured on a filter and quantitated after removal of the unincorporated nucleotides. […]
pIC50: −log10 of the molar value.
Label scheme for pIC50: lower than 5 is not satisfied, 5 and above is satisfied.

1. CC[C@H](C)C1(CC(=O)O)OCCc2c1[nH]c1c(C#N)ccc(C(F)(F)F)c21 (mixture of isomers) [Example 279]; satisfied
2. O=C(O)CC1(C2CCCC2)OCCc2c1[nH]c1c(Cl)ccc(Cl)c21 (stereo not shown) [Example 254]; satisfied
3. Cc1ccc(C#N)c2c3c([nH]c12)C(CC(=O)O)(C1CCC1)OCC3 (stereo not shown) [Example 284]; satisfied
4. Cc1ccc(C#N)c2c3c([nH]c12)C(CC(=O)O)(C1CC1)OCC3 (stereo not shown) [Example 283]; not satisfied
5. CC[C@H](C)[C@@]1(CC(=O)O)OCCc2c1[nH]c1c(F)ccc(C#N)c21 (racemic) [Example 313]; satisfied
6. COCCC1(CC(=O)O)OCCc2c1[nH]c1c(F)ccc(C#N)c21 (stereo not shown) [Example 304]; not satisfied
7. CCCNC(=O)c1cc(C#N)c2c3c([nH]c2c1C)C(CCC)(CC(=O)O)OCC3 (stereo not shown) [Example 354]; satisfied
8. O=C(O)CC1(C2CCCC2)OCCc2c1[nH]c1c(F)ccc(C(F)(F)F)c21 (stereo not shown) [Example 270]; not satisfied
9. CCOCC1(CC(=O)O)OCCc2c1[nH]c1c(Cl)ccc(Cl)c21 (stereo not shown) [Example 248]; not satisfied
10. CSCC1(CC(=O)O)OCCc2c1[nH]c1c(Cl)ccc(Cl)c21 (stereo not shown) [Example 249]; satisfied
11. Cc1ccc(C#N)c2c3c([nH]c12)[C@](CC(=O)O)(C1CCC1)OCC3 [Example 286]; not satisfied
12. N#Cc1ccc(F)c2[nH]c3c(c12)CCOC3(CC(=O)O)C1CCCC1 (stereo not shown) [Example 308]; not satisfied
13. COCC1(CC(=O)O)OCCc2c1[nH]c1c(F)ccc(C#N)c21 (stereo not shown) [Example 303]; not satisfied
14. CC[C@H](C)[C@@]1(CC(=O)O)OCCc2c1[nH]c1c(Cl)ccc(C#N)c21 [Example 325]; satisfied
15. O=C(O)CC1(CCC(F)(F)F)OCCc2c1[nH]c1ccc(Cl)c(Cl)c21 (stereo not shown) [Example 239]; satisfied
16. Cc1ccc(C#N)c2c3c([nH]c12)C(CC(=O)O)(CC1CCCC1)OCC3 (stereo not shown) [Example 288]; not satisfied
17. CCCC1(C(=O)O)OCCc2c1[nH]c1c(CC)ccc(C#N)c21 (stereo not shown) [Example 340]; not satisfied
18. CCCC1(C(=O)O)OCCc2c1[nH]c1c(F)ccc(C#N)c21 (stereo not shown) [Example 342]; satisfied
19. Cc1ccc(C(F)(F)F)c2c3c([nH]c12)C(CC(=O)O)(C1CCC1)OCC3 (stereo not shown) [Example 275]; satisfied

###

Target: NS5B from the BK strain (genotype 1b) (Hepatitis C virus genotype 1b)
Construct: NS5B from the BK strain (genotype 1b) is expressed in E. coli as a protein in which the 21 C-terminal amino acids are replaced; made in house; host or cells: E. coli
Assay: Hepatitis C polymerase inhibition, NS5B BK strain, 33P-GTP filter assay
Type: biochemical
Conditions: Table 1A; NS5B BK strain; read-out: HCV pol BK IC50
pIC50: −log10 of the molar value.
Quick reference for pIC50 among some molecules
Reported Endpoint: pIC50

1. Cc1cc(Cl)c2[nH]c3c(c2c1C#N)CCOC3(C)CC(=O)O (stereo not shown); < 5.30
2. O=C(O)CC1(c2ccoc2)OCCc2c1[nH]c1c(F)cc(F)c(Br)c21 (stereo not shown); < 5.30
3. O=C(O)CC1(c2ccccc2F)OCCc2c1[nH]c1cccc(Cl)c21 (stereo not shown); < 4.70
4. COc1cc(C2(CC(=O)O)OCCc3c2[nH]c2cccc(Br)c32)cc(OC)c1OC (stereo not shown); < 4.70

###

Molecular target: UniProtKB Q9WMX2
Sequence (Q9WMX2 2420-3010): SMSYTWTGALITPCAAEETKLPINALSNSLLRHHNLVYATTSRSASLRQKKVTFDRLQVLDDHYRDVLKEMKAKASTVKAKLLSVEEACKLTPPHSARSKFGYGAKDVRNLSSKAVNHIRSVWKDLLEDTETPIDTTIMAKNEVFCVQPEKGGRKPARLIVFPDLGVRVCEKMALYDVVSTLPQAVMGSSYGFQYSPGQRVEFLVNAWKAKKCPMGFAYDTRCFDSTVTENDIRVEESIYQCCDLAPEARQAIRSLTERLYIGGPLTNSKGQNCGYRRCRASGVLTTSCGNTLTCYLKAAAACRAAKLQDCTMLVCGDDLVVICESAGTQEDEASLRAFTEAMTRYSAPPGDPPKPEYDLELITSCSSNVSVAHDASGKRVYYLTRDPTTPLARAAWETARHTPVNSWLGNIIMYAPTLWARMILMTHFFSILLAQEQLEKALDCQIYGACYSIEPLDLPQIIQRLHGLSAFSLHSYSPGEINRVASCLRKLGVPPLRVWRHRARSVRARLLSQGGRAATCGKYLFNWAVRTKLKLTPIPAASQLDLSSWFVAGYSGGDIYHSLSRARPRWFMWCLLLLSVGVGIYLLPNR
Reported Endpoint: IC50

1. N#Cc1ccc(F)c2[nH]c3c(c12)CCOC3(C(=O)O)C1CCCC1 (stereo not shown); > 30 µM
2. COCC1(CC(=O)O)OCCc2c1[nH]c1c(C)ccc(C#N)c21 (stereo not shown); > 30 µM
3. CC[C@@H](C)[C@@]1(C(=O)O)OCCc2c1[nH]c1c(F)ccc(C#N)c21 (relative stereo); > 24 µM
4. N#Cc1ccc(F)c2[nH]c3c(c12)CCOC3(C(=O)O)C1CCCCC1 (stereo not shown); > 30 µM
5. Cc1ccc(C(F)(F)F)c2c3c([nH]c12)C(CC(=O)O)(C1CC1)OCC3 (stereo not shown); > 26 µM
6. Cc1ccc(C#N)c2c3c([nH]c12)C(CC(=O)O)(C1CC1)OCC3 (stereo not shown); > 27 µM
7. COCCC1(CC(=O)O)OCCc2c1[nH]c1ccc(Cl)c(Cl)c21 (stereo not shown); > 30 µM

###

Biological target: NS5B from the BK strain (genotype 1b) (Hepatitis C virus genotype 1b, UniProt P26663)
Construct: NS5B from the BK strain (genotype 1b) is expressed in E. coli as a protein in which the 21 C-terminal amino acids are replaced; made in house; host or cells: E. coli
Test: Hepatitis C polymerase inhibition, NS5B BK strain, 33P-GTP filter assay
Type: biochemical
Settings: Table 1A; 20 μM compound; read-out: HCV pol % inh at 20 μM
Reported Endpoint: inhibition at 20 µM (%)

1) Cc1ccc(C)c2c3c([nH]c12)C(C)(CC(=O)O)OCC3 (centres unmarked); 5
2) Cc1cc(F)c(C#N)c2c3c([nH]c12)C(CC(=O)O)(C(C)C)OCC3 (centres unmarked); 76
3) CCCC1(CC(=O)O)OCCc2c1[nH]c1c(F)ccc(Br)c21 (centres unmarked); 87
4) C/C=C/CCC1(CC(=O)O)OCCc2c1[nH]c1c(Cl)ccc(C(F)(F)F)c21 (centres unmarked); 28
5) CCCCC1(CC(=O)O)OCCc2c1[nH]c1c(F)cc(F)c(C#N)c21 (centres unmarked); 77
6) CCCC1(CC(=O)O)OCCc2c1[nH]c1c(-c3ccc(C(F)(F)F)cc3)cccc21 (centres unmarked); 33
7) N#Cc1cccc2[nH]c3c(c12)CCOC3(CC(=O)O)c1ccc([N+](=O)[O-])cc1 (centres unmarked); 18
8) CC(C)C1(CC(=O)O)OCCc2c1[nH]c1c(F)cc(F)c(Br)c21 (centres unmarked); 69
9) Cc1cc(Cl)c2[nH]c3c(c2c1C#N)CCOC3(CC(=O)O)C(C)C (centres unmarked); 39
10) CCC1(CC(=O)O)OCCc2c1[nH]c1c(Cl)cc(C)c(Br)c21 (centres unmarked); 70
11) Cc1cc(F)c(Br)c2c3c([nH]c12)C(C)(CC(=O)O)OCC3 (centres unmarked); 52
12) CCCC1(CC(=O)O)OCCc2c1[nH]c1c(F)cc(F)c(C#N)c21 (centres unmarked); 90
13) CCC1(CC(=O)O)OCCc2c1[nH]c1cccc(Cl)c21 (centres unmarked); 23
14) N#Cc1cccc2[nH]c3c(c12)CCOC3(CC(=O)O)c1ccccc1 (centres unmarked); 32
15) Cc1cc(Cl)c2[nH]c3c(c2c1C#N)CCOC3(C)CC(=O)O (centres unmarked); 14
16) Cc1cc(Cl)c2[nH]c3c(c2c1Br)CCOC3(CC(=O)O)c1ccc(C(=O)O)cc1 (centres unmarked); 92
17) C/C=C/CCC1(CC(=O)O)OCCc2c1[nH]c1c(C)ccc(F)c21 (centres unmarked); 20
18) O=C(O)CC1(c2ccc(C(=O)O)cc2)OCCc2c1[nH]c1c(Br)cccc21 (centres unmarked); 42
19) CCCC1(CC(=O)O)OCCc2c1[nH]c1cccc(-c3ccccc3Cl)c21 (centres unmarked); 41
